Every entry's value here was drawn from the Biogen ADME set (Fang et al. 2023).

readoutType: intrinsic clearance, rat liver microsomes (mL/min/kg)

[a] NC(=O)c1cnc(NC2CC2)nc1CCNC(=O)C1(c2cccc(F)c2)CCOCC1
[b] Cc1cc(CSCc2c(C)noc2C)no1
Query block: Two entries are listed, a and b . Which one carries the higher intrinsic clearance, rat liver microsomes? Please reply using the label of the selected record.
Result block: b
(b: 1910 mL/min/kg, a: 88.6 mL/min/kg)

[I] CC(C)(C)NC(=O)NCCn1nc2c(cc1=O)CCCC2
[II] CN(Cc1c(F)cccc1Cl)C(=O)c1ccc(-n2ccnc2)nc1
Query block: // returns I or II , whichever has the lower intrinsic clearance, rat liver microsomes Please reply using the label of the selected record.
Result block: I

[P] N#Cc1ccccc1Cn1nnc(-c2ccccc2)n1
[Q] CCCNC(=O)c1ccnc(N(C)C)c1
Query block: Two entries are listed, P and Q . Which one carries the higher intrinsic clearance, rat liver microsomes? Please reply using the label of the selected record.
Result block: P
(P: 211 mL/min/kg, Q: 83.5 mL/min/kg)

###

- recordedConditions: pH 6.8
readoutType: aqueous solubility (µg/mL)

Example cases with answers are listed next.
- testSmiles: "COc1ccc(OCc2nn3c(-c4ccc(OC)cc4)nnc3s2)cc1"
  unitOfMeasure: "µg/mL"
  aqueous solubility: 0.2
- testSmiles: "Fc1ccc(-n2cc(/C=C/c3ccnnc3)nn2)cc1Cl"
  unitOfMeasure: "µg/mL"
  aqueous solubility: 0.27
- testSmiles: "O=C(Nc1nc2ccccc2[nH]1)c1cc(Cl)ccc1Cl"
  unitOfMeasure: "µg/mL"
  aqueous solubility: 0.55

[P] Fc1ccccc1-c1noc(-c2ccc(NCCc3cnccn3)nc2)n1
[Q] Cc1nccn1CCNC(=O)C(C)(C)C
Query block: // returns P or Q , whichever has the lower aqueous solubility Please reply using the label of the selected record.
Result block: P
(P: 5.51 µg/mL, Q: 26.2 µg/mL)

###

readoutType: intrinsic clearance, human liver microsomes (mL/min/kg)

Example cases with answers are listed next.
- molecule: "Cc1nccc(N(C)Cc2nc(-c3cccnc3)no2)n1"
  unitOfMeasure: "mL/min/kg"
  dataValue: 8.62
- molecule: "COc1ccc(-c2ccc(CNc3ccc(CN4CCC(C)CC4)cc3)cc2)cc1"
  unitOfMeasure: "mL/min/kg"
  dataValue: 124
- molecule: "CCc1nc2ccc(C(=O)NCc3ccccc3)cc2nc1CC"
  unitOfMeasure: "mL/min/kg"
  dataValue: 101
- molecule: "COc1cccc(NC(=O)CNc2cccc(-c3ccnc(C)n3)c2)c1"
  unitOfMeasure: "mL/min/kg"
  dataValue: 61.2

[a] COc1ccc2nc(C)nc(NCc3ncc(C)o3)c2c1
[b] CCn1c(COC(=O)c2ccc(C)s2)nc2cc(S(=O)(=O)N3CCCCC3)ccc21
Query block: Two entries are listed, a and b . Which one carries the higher intrinsic clearance, human liver microsomes? Please reply using the label of the selected record.
Result block: b

[a] O=C(Nc1cccc2cnccc12)c1cccc(F)c1
[b] CNc1cc(C)nc(-c2ccnc3c2ccn3C)n1
[c] CC(=O)c1ccc2c(c1)CCN(CCC1OCCO1)CC2
[d] Cc1nc(CCNc2cnccc2C#N)cs1
Query block: Sort low-to-high on intrinsic clearance, human liver microsomes, please. Labels, requested order.
Result block: c, a, d, b

[I] CC(C)c1nnc(CN2CCN(c3ccccc3Cl)CC2)o1
[II] O=c1c2c(C(F)(F)F)cccc2ncn1CCc1ncc[nH]1
Query block: // returns I or II , whichever has the lower intrinsic clearance, human liver microsomes Please reply using the label of the selected record.
Result block: II

[1] Cc1ccc(C2(O)CCN(Cc3cn(C)c4ccc(F)cc34)CC2)cc1
[2] Cc1cc(NC(=O)CN(C)CCOc2ccccc2)on1
[3] CN1CCC(N(Cc2cccnc2)C(=O)NCCCc2ccccc2)CC1
[4] Cc1ccc(C(=O)NCCc2ccc(F)cc2)o1
[5] CC(C)c1nccn1Cc1nc(-c2cccs2)no1
Query block: Reorder: intrinsic clearance, human liver microsomes, max to min. Labels, requested order.
Result block: 2, 1, 4, 5, 3
(2: 166 mL/min/kg, 1: 65.2 mL/min/kg, 4: 22 mL/min/kg, 5: 13.6 mL/min/kg, 3: 6.28 mL/min/kg)
